# System Under Test: UniProtKB Q99720
# Sequence (Q99720 whole entry): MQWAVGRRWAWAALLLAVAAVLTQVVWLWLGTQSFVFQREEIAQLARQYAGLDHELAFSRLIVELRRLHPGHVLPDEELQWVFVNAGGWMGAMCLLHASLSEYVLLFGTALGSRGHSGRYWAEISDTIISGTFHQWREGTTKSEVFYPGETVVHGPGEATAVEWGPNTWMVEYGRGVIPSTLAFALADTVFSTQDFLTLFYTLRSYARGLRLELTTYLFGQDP
# Assay: Human σ1 receptor radioligand assay ([3H](+)-pentazocine, transfected HEK-293 membranes)
# Assay type: binding
# Condition: μ and σ1 dual binding, one class symbol for both Ki-σ1 (human σ1 receptor, A1) and Ki-μ (human μ-opioid receptor, A2)
# Text: Human σ1 Receptor Radioligand Assay To investigate binding properties of test compounds to human σ1 receptor, transfected HEK-293 membranes and [^3H](+)-pentazocine (Perkin Elmer, NET-1056), as the radioligand, were used. […] Filters were dried and counted at approximately 40% efficiency in a MicroBeta scintillation counter (Perkin-Elmer) using EcoScint liquid scintillation cocktail
So I've got a bunch of molecules here, and I need their Ki values.

Reported Ki ( CC1(C)CC(C(=O)c2ccccn2)(N2CC3CN(Cc4ccccc4)CC3C2)CCO1 (stereo not shown) [Example 18] ) = < 0.5 µM

Reported Ki ( CC(C)(F)CCN1CCN(C2(C(=O)c3ccccn3)CCOC(C)(C)C2)CC1 (stereo not shown) [Example 117] ) = < 0.5 µM

Reported Ki ( CC(C)CCN1CCC([C@]2(C(=O)c3ccccn3)CCOC(C)(C)C2)CC1 [Example 114] ) = < 0.5 µM

Reported Ki ( CC1(C)CC(C(=O)c2ccccn2)(N2CCCN(Cc3ccccc3)CC2)CCO1 (stereo not shown) [Example 24] ) = < 0.5 µM

Reported Ki ( CC(C)CCN(C)[C@H]1CCN([C@]2(C(=O)c3ccccn3)CCOC(C)(C)C2)C1 [Example 150] ) = < 0.5 µM

Reported Ki ( CC1(C)CC(C2CC2)(N2CCN(CCc3ccccc3)CC2)CCO1 (stereo not shown) [Example 44] ) = < 0.5 µM

Reported Ki ( CC1(C)CC(C(=O)c2ccccn2)(C2CCN(Cc3cccc(F)c3)CC2)CCO1 (stereo not shown) [Example 108] ) = < 0.5 µM

Reported Ki ( CC(C)CCN1CCC([C@@]2(C(=O)c3ccccn3)CCOC(C)(C)C2)CC1 [Example 115] ) = < 0.5 µM

Reported Ki ( CC(C)C1(N2CCN(CCc3cc(F)ccc3F)CC2)CCOC(C)(C)C1 (stereo not shown) [Example 92] ) = < 0.5 µM

Reported Ki ( CC(C)CN1CCN(C2(C(=O)c3ccccn3)CCOC3(CCCC3)C2)CC1 (stereo not shown) [Example 51] ) = < 0.5 µM

Reported Ki ( CC(C)C1(N2CCN(CCc3ccccc3F)CC2)CCOC(C)(C)C1 (stereo not shown) [Example 89] ) = < 0.5 µM

Reported Ki ( CN(Cc1ccccc1)[C@@H]1CCN([C@]2(C(=O)c3ccccn3)CCOC(C)(C)C2)C1 [Example 142] ) = < 0.1 µM

Reported Ki ( CCC1(N2CCN(CCc3ccccc3F)CC2)CCOC(C)(C)C1 (stereo not shown) [Example 94] ) = < 0.5 µM

Reported Ki ( O=C(c1ccccc1)C1(N2CCN(Cc3ccccc3)CC2)CCOC2(CCCC2)C1 (stereo not shown) [Example 4] ) = < 0.1 µM

Reported Ki ( CC1(C)CC(C(=O)c2ccccn2)(C2CCN(Cc3ccccc3)CC2)CCO1 (stereo not shown) [Example 22] ) = < 0.5 µM

Reported Ki ( CN(Cc1ccccc1)[C@H]1CCN([C@@]2(C(=O)c3ccccn3)CCOC(C)(C)C2)C1 [Example 140] ) = < 0.5 µM

Reported Ki ( CC(C)OCCCN1CCN(C2(C(=O)c3ccccn3)CCOC(C)(C)C2)CC1 (stereo not shown) [Example 71] ) = < 0.5 µM

Reported Ki ( CC(C)C1(N2CCN(CCc3ccccc3)CC2)CCOC(C)(C)C1 (stereo not shown) [Example 42] ) = < 0.1 µM

Reported Ki ( CC1(C)C[C@](C(=O)c2ccccn2)(N2CCN(Cc3ccccc3)CC2)CCO1 [Example 3] ) = < 0.1 µM
